Task for the reader: assign each of the following substances its reported body weight.
# EXPERIMENTAL_PROTOCOL: Tolerability in Balb/c mice, body and organ weights (Example 12)
# Format: in vivo
# EXPERIMENTAL_PARAMETERS: male Balb/c mice, 50 mg/kg s.c. twice a week for four weeks (8 treatments), end of study (day 26)
# Procedure: Groups of male Balb/c mice at 6-7 weeks of age (obtained from Taconic) were injected subcutaneously twice a week for four weeks (for a total of 8 treatments) with 50 mg/kg of modified oligonucleotides. One group of male Balb/c mice was injected with PBS. Mice were euthanized on day 26 post start of treatment (24 hours following the final administration). Body weights of Balb/c mice were measured at the end of the study, and the average body weight for each group is presented in the table below. […]
Strand notation (5' to 3'): a small letter for the sugar, then the base; units joined by * are phosphorothioate-linked, units joined directly phosphodiester-linked; [ ] holds rarer units or linkages, { } end groups; capitals alone tell only the bases. k = constrained ethyl (cEt); [5mC] = 5-methylcytosine; d = 2'-deoxy (DNA)
Numbers only, in g.

Illustrative cases are given below, each with its answer.
SUBSTANCE	body weight [g]
958590 (kA*kG*kG*dT*dA*dT*dA*dA*d[5mC]*dT*dG*dG*dG*k[5mC]*kA*kA) [compound 958590]	25
958375 (antisense kA*kA*kA*dG*d[5mC]*d[5mC]*dT*dT*dA*dG*dA*dG*dT*k[5mC]*kA*kA) [compound 958375]	23
958540 (kA*kT*kT*d[5mC]*dT*dA*dT*d[5mC]*d[5mC]*dA*dG*dG*dG*kT*k[5mC]*kA; antisense) [compound 958540]	19
958498 (kG*kA*kG*dT*dA*dT*dG*dT*dG*dG*d[5mC]*dA*dA*kT*kA*kA; antisense) [compound 958498]	20
958736 (kG*kT*kG*dA*dT*dA*dT*dG*dG*dA*dT*dT*d[5mC]*kT*kG*kT; antisense) [compound 958736]	24
958725 (kG*kT*k[5mC]*dA*dG*dT*dT*dA*dT*d[5mC]*d[5mC]*dT*dA*kT*k[5mC]*k[5mC]; antisense) [compound 958725]	15
958554 (kA*kA*k[5mC]*d[5mC]*dA*dT*dT*dA*dT*dT*dA*d[5mC]*dT*k[5mC]*k[5mC]*kT; antisense) [compound 958554]	22
958454 (antisense kG*kG*kA*dA*dT*dG*dA*dG*d[5mC]*dT*d[5mC]*dG*dA*kA*k[5mC]*kA) [compound 958454]	14
958553 (k[5mC]*k[5mC]*kA*dT*dT*dA*dT*dT*dA*d[5mC]*dT*d[5mC]*d[5mC]*kT*kG*kT; antisense) [compound 958553]	21
958499 (ATTAGAGTATGTGGCA; 3-10-3 cEt gapmer, further chemistry not given here) [compound 958499]	23

Dear colleague, could you please provide body weight for the substances listed below?
1. 958603 (kT*kG*kG*dT*dA*dT*dG*dA*dA*dT*dT*d[5mC]*dT*kG*kA*kA; antisense) [compound 958603]
2. 958509 (kA*kT*kG*dT*dT*dA*dT*dG*dT*dT*dT*dG*dG*kG*kT*kG; antisense) [compound 958509]

[21, 20]

Dear colleague, could you please provide body weight for the substances listed below?
1. 958721 (kG*kT*kA*dG*dT*dA*dT*dA*dA*dT*dG*dA*dG*kT*kT*kA; antisense) [compound 958721]
2. 958729 (kG*kT*k[5mC]*dA*dG*dT*dT*dA*dT*d[5mC]*d[5mC]*dT*dA*kT*k[5mC]*kT; antisense) [compound 958729]

[24, 15]

* * *

# Tested on: Yap1 mRNA
# EXPERIMENTAL_PROTOCOL: Dose-dependent inhibition of human Yap1 in A-431 cells (Example 24, 11,000 cells per well, RTS36584, normalized to GAPDH)
# Format: cell-based
# EXPERIMENTAL_PARAMETERS: 0.002 μM, free uptake, 48 hours, RTS36584, normalized to GAPDH
Task for the reader: assign each of the following substances its reported Yap1 mRNA, % UTC.
Give bare numbers, in % UTC.

Illustrative cases are given below, each with its answer.
SUBSTANCE	Yap1 mRNA, % UTC, % UTC
1198440 (AAGTGTATGTCAGAAG; cEt, 2'-MOE, 5-methylcytosine, phosphorothioate modifications, further chemistry not given here) [compound 1198440]	0
1198605 (GTAATATTGCAATCTG; modified gapmer, further chemistry not given here) [compound 1198605]	0
1198728 (TATTAGAGTATGTGGC; modified gapmer, further chemistry not given here) [compound 1198728]	1
1197270 (TTAAAGTGTATGTCAG; cEt gapmer with 2'-OMe nucleoside, phosphorothioate, further chemistry not given here) [compound 1197270]	0
1076453 (GTAATATTGCAATCTG; 3-10-3 cEt gapmer, further chemistry not given here) [compound 1076453]	0

Note: attention shifts to another entry.
Please list Yap1 mRNA, % UTC recorded for the substance 1198623 (CTAAGTAAGGTTTCCC; modified gapmer, further chemistry not given here) [compound 1198623]
2

* * *

# Tested on: Yap1 mRNA
# EXPERIMENTAL_PROTOCOL: Dose-dependent inhibition of human Yap1 in A-431 cells (Example 8, 10,000 cells per well, RTS4814)
# Assay type: cell-based
# EXPERIMENTAL_PARAMETERS: 125.0 nM; A-431 cells, 10,000 cells per well, free uptake, approximately 48 hours, RTS4814
Strand notation (5' to 3'): a small letter for the sugar, then the base; units joined by * are phosphorothioate-linked, units joined directly phosphodiester-linked; [ ] holds rarer units or linkages, { } end groups; capitals alone tell only the bases. k = constrained ethyl (cEt); [5mC] = 5-methylcytosine; d = 2'-deoxy (DNA)
Task for the reader: assign each of the following substances its reported Yap1 mRNA, % UTC.
Give bare numbers, in % UTC.

Illustrative cases are given below, each with its answer.
SUBSTANCE	UNITS	DATA_VALUE
1074480 (kT*k[5mC]*kA*dT*dT*dT*dG*d[5mC]*d[5mC]*dT*dA*dG*dG*kT*kT*k[5mC]; antisense) [compound 1074480]	% UTC	9
1074537 (k[5mC]*kA*kG*dT*dA*dA*dT*dA*dG*d[5mC]*dT*d[5mC]*dT*kT*kT*k[5mC]; antisense) [compound 1074537]	% UTC	21
1074250 (antisense k[5mC]*kT*kG*dA*dT*d[5mC]*dG*dA*dT*dG*dT*dG*dA*kT*kT*kT) [compound 1074250]	% UTC	35

Dear colleague, could you please provide Yap1 mRNA, % UTC for the substances listed below?
1. 1076067 (kG*k[5mC]*kA*dT*dA*dT*dA*dA*dG*dA*dT*dG*dT*kT*kT*kG; antisense) [compound 1076067]
2. 1076143 (kG*kA*kT*dA*d[5mC]*dG*dA*dA*dA*dA*dA*dA*dG*k[5mC]*k[5mC]*kA; antisense) [compound 1076143]
3. 1074409 (kG*kG*kA*dT*dT*dA*dA*dA*dG*dT*dA*dT*d[5mC]*kT*kT*kG; antisense) [compound 1074409]
4. 1074368 (kG*kA*kT*dA*dG*dT*dA*dT*d[5mC]*dA*d[5mC]*d[5mC]*dT*kG*kT*kA; antisense) [compound 1074368]
5. 1075088 (kA*kT*kT*dT*dA*dT*dA*dG*dT*d[5mC]*dA*dG*dG*kT*kT*k[5mC]; antisense) [compound 1075088]
6. 1075111 (kT*kA*kG*dG*dA*dA*dT*dA*dT*dG*dG*dG*dT*kA*kG*kT; antisense) [compound 1075111]
7. 1076549 (kG*kT*kG*d[5mC]*dA*dA*dA*dA*dT*dA*d[5mC]*d[5mC]*dT*kT*kT*kG; antisense) [compound 1076549]
8. 1076448 (k[5mC]*kT*kT*dA*dT*dA*dA*dT*dG*d[5mC]*dA*dA*dT*k[5mC]*k[5mC]*kT; antisense) [compound 1076448]

1: 13; 2: 48; 3: 30; 4: 34; 5: 9; 6: 11; 7: 24; 8: 19

Dear colleague, could you please provide Yap1 mRNA, % UTC for the substances listed below?
1. 1074579 (DNA k[5mC]*k[5mC]*kA*d[5mC]*dT*dA*dT*dA*dA*dA*dG*d[5mC]*dT*kT*kA*kT) [compound 1074579]
2. 1075699 (kG*kA*kT*dT*dT*dA*dT*dA*d[5mC]*dT*d[5mC]*dA*dG*kG*kT*kT; antisense) [compound 1075699]

22
6

* * *

# System: Yap1 mRNA
# EXPERIMENTAL_PROTOCOL: Antisense inhibition of human Yap1 in A-431 cells by cEt gapmers, single dose (Example 3, RTS36584)
# Format: cell-based
# EXPERIMENTAL_PARAMETERS: Table 26; Yap1 mRNA by 3-10-3 cEt gapmers targeting SEQ ID NO.: 1, and 2; percent of untreated control
Strand notation (5' to 3'): a small letter for the sugar, then the base; units joined by * are phosphorothioate-linked, units joined directly phosphodiester-linked; [ ] holds rarer units or linkages, { } end groups; capitals alone tell only the bases. k = constrained ethyl (cEt); [5mC] = 5-methylcytosine; d = 2'-deoxy (DNA)
OBSERVATION_TYPE: YAP1 (% UTC)
One number for each entry, in % UTC.

Illustrative cases are given below, each with its answer.
SUBSTANCE	TARGET_DESC	YAP1 (% UTC)
1075564 (kA*kT*kA*dT*dA*dA*d[5mC]*dA*dG*dG*d[5mC]*d[5mC]*dA*k[5mC]*k[5mC]*kA; antisense) [compound 1075564]	Yap1 mRNA	81
1074188 (antisense kG*k[5mC]*kT*dG*d[5mC]*dG*dA*dA*dG*dG*d[5mC]*dG*dG*k[5mC]*kT*kG) [compound 1074188]	Yap1 mRNA	113
1076524 (kA*kA*kT*dT*dT*dA*dT*dA*dT*d[5mC]*dA*dG*dG*kT*k[5mC]*kA; antisense) [compound 1076524]	Yap1 mRNA	6
1074732 (k[5mC]*k[5mC]*kA*dG*dG*dT*dA*dT*d[5mC]*dA*d[5mC]*dA*dG*kT*kA*k[5mC]; antisense) [compound 1074732]	Yap1 mRNA	30
1075756 (kA*kT*kT*dT*dA*d[5mC]*d[5mC]*d[5mC]*dT*dG*d[5mC]*d[5mC]*dA*k[5mC]*kT*kT; antisense) [compound 1075756]	Yap1 mRNA	49

Note: attention shifts to another entry.
Please list YAP1 (% UTC) recorded for the substance 1076460 (kT*kA*kA*dT*dA*dT*dA*dG*d[5mC]*d[5mC]*d[5mC]*d[5mC]*dT*kT*k[5mC]*kA; antisense) [compound 1076460]
7

// provenance: patent US11214803B2
